Test system: Allodynia caused by PGE2
Experiment: inhibitory effect on allodynia caused by intrathecal injection of PGE2
Format: in vivo, male ddY mice
Details: mixture of PGE2 (10ng/body) and compound (10ng/body) injected intrathecally, mice, touch-stimulus score 5 min after administration; 100% = all subjects score 2
Description: (1) an inhibitory effect on allodynia caused by intrathecal injection of PGE2 Five or six male ddY mice weighing 22± 2 g in a group were used. […] Score is 0: no changed, 1: escaped from touch-stimulus and squeaked, 2: escaped vigorously from touch-stimulus and squeaked loudly. When All the subjects got score 2, it was evaluated as 100% of allodynia expression. […]
Recorded % of allodynia expression, Allodynia caused by PGE2 for the following compounds

O=C(O)CCC/C=C\[C@H]1[C@H]2CC[C@H](C2)[C@@H]1CNS(=O)(=O)c1c(Cl)cccc1Cl [comparison compound 3, reference compound]    91.7 ± 8.3%
O=C(O)CCC/C=C\[C@H]1[C@H]2CC[C@H](C2)[C@@H]1CNS(=O)(=O)c1ccccc1Cl [comparison compound 1, reference compound]    100 ± 0.0%
O=C(O)CCC/C=C\[C@H]1[C@H]2CC[C@H](C2)[C@@H]1CNS(=O)(=O)c1ccccc1I    8.3 ± 8.3%
O=C(O)CCC/C=C\[C@H]1[C@H]2CC[C@H](C2)[C@@H]1CNS(=O)(=O)c1ccc(F)c(F)c1    0.0 ± 0.0%
O=C(O)CCC/C=C\[C@H]1[C@@H]2CC[C@@H](C2)[C@@H]1CNS(=O)(=O)c1cc(F)ccc1F    8.3 ± 8.3%

The record that follows has no % of allodynia expression, Allodynia caused by PGE2 shown yet.
**Q:** Form entry - test system: Allodynia caused by PGE2; read-out: % of allodynia expression, Allodynia caused by PGE2; compound: `CC1(C)[C@H]2C[C@H](NS(=O)(=O)c3ccccc3)[C@@H](C/C=C\CCCC(=O)O)[C@@H]1C2`
**A:** 8.3 ± 8.3%
